assay.text: Pharmacokinetics after intravenous and oral administration in rats
Assay type: in vivo, rat
settings: rat, plasma, iv dose 1 mg/kg, oral dose generally 5 or 10 mg/kg
Give measured bioavailability for each item. Keep answers brief.
The response must be a number in % with no trailing unit.

// recorded bioavailability for `C[C@H](Nc1ncnc(N)c1-c1ncn(C)n1)c1nc2cccc(Cl)c2c(=O)n1C1CC1` : 14

// recorded bioavailability for `CC[C@H](Nc1ncnc(N)c1-c1nc(C)no1)c1nc2cccc(F)c2c(=O)n1-c1ccccc1` : 75.5

// recorded bioavailability for `C[C@H](Nc1ncnc(N)c1-c1nnn(C)n1)c1nc2cccc(Cl)c2c(=O)n1C1CC1` : 33

// recorded bioavailability for `Cc1nc(-c2c(N)ncnc2N[C@@H](C)c2nc3cccc(Cl)c3c(=O)n2C2CC2)no1` : 5.59

// recorded bioavailability for `Cc1nnc(-c2c(N)ncnc2N[C@@H](C)c2nc3cccc(Cl)c3c(=O)n2-c2ccccc2)o1` : 111

// recorded bioavailability for `CC[C@@H](Nc1ncnc(N)c1-c1nc(C)no1)c1nc2cccc(Cl)c2c(=O)n1C1CC1` : 5.49

// recorded bioavailability for `CC[C@H](Nc1ncnc(N)c1C1=N[C@@H](C)CO1)c1nc2cccc(Cl)c2c(=O)n1C1CC1` : 30.4

// recorded bioavailability for `CC[C@H](Nc1ncnc(N)c1-c1nc(C)co1)c1nc2cccc(Cl)c2c(=O)n1C1CC1` : 21.3

// recorded bioavailability for `CC[C@H](Nc1ncnc(N)c1-c1ncnn1C)c1nc2cccc(Cl)c2c(=O)n1C1CC1` : 158

// recorded bioavailability for `CC[C@H](Nc1ncnc(N)c1-c1ncn(C)n1)c1nc2cccc(Cl)c2c(=O)n1C1CC1` : 97.3

// recorded bioavailability for `CC[C@H](Nc1ncnc(N)c1-c1nc(C)co1)c1nc2cccc(C)c2c(=O)n1-c1ccccc1C` : 4.56

// recorded bioavailability for `CC[C@H](Nc1ncnc(N)c1-c1noc(C)n1)c1nc2cccc(F)c2c(=O)n1C1CC1` : 18.3

// recorded bioavailability for `CC[C@H](Nc1ncnc(N)c1-c1nc(C)no1)c1nc2cccc(C)c2c(=O)n1C1CC1` : 57.5

// recorded bioavailability for `CC[C@H](Nc1ncnc(N)c1-c1ccon1)c1nc2cccc(F)c2c(=O)n1C1CC1` : 32.7

// recorded bioavailability for `CC(C)c1nc(-c2c(N)ncnc2N[C@@H](C)c2nc3cccc(Cl)c3c(=O)n2C2CC2)no1` : 3.27

// recorded bioavailability for `CC[C@H](Nc1ncnc(N)c1-c1ncn(C)n1)c1nc2cccc(Cl)c2c(=O)n1-c1ccccc1F` : 70.2

// recorded bioavailability for `CC[C@H](Nc1ncnc(N)c1-c1ncn(C)n1)c1nc2cccc(Cl)c2c(=O)n1-c1ccccc1` : 61

// recorded bioavailability for `CC[C@H](Nc1ncnc(N)c1-c1nnc(C)o1)c1nc2cccc(C)c2c(=O)n1-c1ccccc1` : 36.6

// recorded bioavailability for `CC[C@H](Nc1ncnc(N)c1-c1nc(C(N)=O)n(C)n1)c1nc2cccc(Cl)c2c(=O)n1C1CC1` : 106

// recorded bioavailability for `CC[C@H](Nc1ncnc(N)c1-c1nnc(C)o1)c1nc2cccc(C)c2c(=O)n1-c1ccccc1C` : 16.2

// recorded bioavailability for `CC[C@H](Nc1ncnc(N)c1-c1noc(C)n1)c1nc2cccc(Cl)c2c(=O)n1C1CC1` : 48.9

// recorded bioavailability for `CC[C@H](Nc1ncnc(N)c1-c1nc(C)no1)c1nc2ccccc2c(=O)n1-c1ccccc1F` : 29.8

// recorded bioavailability for `CC[C@H](Nc1ncnc(N)c1-c1noc(C)n1)c1nc2ccccc2c(=O)n1-c1ccccc1F` : 8.88

// recorded bioavailability for `CC[C@H](Nc1ncnc(N)c1-c1ncc(C)o1)c1nc2cccc(C)c2c(=O)n1-c1ccccc1C` : 7.67

// recorded bioavailability for `CC[C@H](Nc1ncnc(N)c1-c1ncn(C)n1)c1nc2cccc(F)c2c(=O)n1C1CC1` : 45.8

// recorded bioavailability for `CC[C@H](Nc1ncnc(N)c1C1=N[C@@H](C)CO1)c1nc2cccc(Cl)c2c(=O)n1-c1ccccc1` : 5.56

// recorded bioavailability for `CC[C@@H](Nc1ncnc(N)c1-c1ccon1)c1nc2cccc(Cl)c2c(=O)n1C1CC1` : 4.37

// recorded bioavailability for `CC[C@H](Nc1ncnc(N)c1-c1nc(C)no1)c1nc2cccc(Cl)c2c(=O)n1[C@@H]1C[C@@H]1F` : 27.7

// recorded bioavailability for `Cc1noc(-c2c(N)ncnc2N[C@@H](C)c2nc3cccc(Cl)c3c(=O)n2C2CC2)n1` : 46.5
